# Test system: HCT-116
# MEASUREMENT_NOTES: NCI tumour cell line growth inhibition, 48 h
The source made the active and inactive calls. Cut-off read from the data, not from the text of the source: active = GI50 up to about 1.1 µM and inactive = higher.
Outcomes: t = active, f = inactive

CCCNC(=O)c1cc(OC)c(OC)cc1NC(=O)C12CC3CC(CC(C3)C1)C2	f
CC1(C)CCC2(C(=O)OC3OC(CO)C(O)C(O)C3O)CCC3(CO)C(=CCC4C5(C)CC(O)C(O)C(C)(C(=O)OC6OC(CO)C(O)C(O)C6O)C5CCC43C)C2C1 (stereo unspecified)	f
COc1cc([C@@H]2c3cc4c(cc3[C@@H](NC(=O)c3ccc(C(C)=O)cc3)C3COC(=O)[C@@H]32)OCO4)cc(OC)c1O (stereo partly specified)	t
O=C1CCCc2cc3c(cc21)CC1(Cc2ccccc2C1)C3	f
O=C1C(NCCc2ccc(O)c([N+](=O)[O-])c2)=CC(=O)c2[nH]cnc21	f
Cc1cc(C)nc(NC(=S)Nc2ccc(Cl)cc2)c1	f
Nc1cc2c(c3ccccc13)C(CCl)CN2C(=O)c1cc2cc(NC(=O)Nc3ccc4[nH]c(C(=O)N5CC(CCl)c6c5cc(N)c5ccccc65)cc4c3)ccc2[nH]1 (stereo unspecified)	t
CN(C)/C=C/c1nnc([N+](=O)[O-])s1	f
C=C1C(=O)OC2C1C(OC(=O)/C(C)=C/C)CC(O)(CCl)C1C(O)C3OC3(C)C21O (stereo unspecified)	f
CCOC(=O)/C=C(\C(=O)OCC)n1ccc(=O)n(CC(=O)OCC)c1=O	f
c1ccc(C2OC3(CCC[C@H]4C[C@H]43)O[C@H]2c2ccccc2)cc1 (stereo partly specified)	f
CSc1cccc(NC(=O)OC2CCCCCCCCCCC2)c1	f
CCN(CC)CCC(=O)/C=C/c1ccc(Cl)c(Cl)c1	f
N=C(N)NS(=O)(=O)c1ccc(NC(=O)c2cccc3c(O)c4ccccc4nc23)cc1	f
COc1ccc(OC(C(=O)O)C(C)C)c2c1CCCC2=O (stereo unspecified)	f
Cc1ccc2c(c1)C(=O)C1(C2)Cc2cccc(C)c2C1=O (stereo unspecified)	f
COc1ccc(/N=N\c2c(N)nn3c(SC)c(C#N)c(N)nc23)cc1	f
COC1(OC)CC(CO)(CNc2cc(Cl)nc(N)n2)C1	f
Clc1ccc2c(NCCCCN3OC3c3ccccc3)ccnc2c1 (stereo unspecified)	f
CC(=O)OCC1OC(n2c(=O)n(-c3ccccc3)c(=O)c3cc(Br)cc(Br)c32)C(OC(C)=O)C(OC(C)=O)C1OC(C)=O (stereo unspecified)	f
COc1cc2nc(-c3cccs3)nc(Nc3ccccc3C(=O)NN)c2cc1OC	f
CC(=O)N/C=C/c1cc(O)ccc1O	f
Cc1cc(S(=O)(=O)[N-]/C(=N/S(=O)(=O)c2ccc(Cl)cc2)[n+]2ccc(N(C)C)cc2)c(S)cc1Cl	f
O=C(Nc1c(Cl)cc([N+](=O)[O-])cc1Cl)C(=O)C(C1OC(=O)c2ccccc21)[N+](=O)[O-] (stereo unspecified)	f
CC1=C(C(=O)Nc2cc(F)c(F)cc2F)C(c2ccc([N+](=O)[O-])cc2)C(C(=O)Nc2cc(F)c(F)cc2F)=C(C)N1	f
CC1OC2OC3C(OCC(O)C3O)OC(=O)[C@]34CCC(C)(C)CC3C3=CCC5[C@@]6(C)C[C@H](O)[C@H](OC7OC(CO)C(O)C(O)C7OC7OCC(OC(=O)CC(C)(O)CC(=O)OC1C(O)C2O)C(O)C7O)[C@@](C)(CO)C6CC[C@@]5(C)[C@]3(C)CC4 (stereo partly specified)	f
O=C1CCCCC(=O)OC2(CCCCC2=O)CC1 (stereo unspecified)	f
Cc1nc(=O)c2cc(CN(C)c3ccc(C(=O)N[C@@H](CCC(=O)O)C(=O)O)s3)ccc2[nH]1	t
COc1ccc2c(c1)CC[C@@H]1C2CC[C@](C)(C#N)C1CC#N (stereo partly specified)	f
O=C(O)c1ccc(NNC(=O)c2cccc3c(=O)c4ccccc4[nH]c23)cc1	f
Cc1ccc(C(=O)Nc2ccc(S(=O)(=O)O)c3cc(S(=O)(=O)O)cc(S(=O)(=O)O)c23)cc1NC(=O)Nc1cc(C(=O)Nc2ccc(S(=O)(=O)O)c3cc(S(=O)(=O)O)cc(S(=O)(=O)O)c23)ccc1C	f
CN(C)CCNc1c2ccccc2c2c3c(cccc13)C(=O)N(CCN(C)C)C2=O	t
COc1cc2oc(=O)cc(C)c2c(OC)c1OC	f
Cn1c(=O)c2c(ncn2CN2CCN(Cn3cnc4c3c(=O)n(C)c(=O)n4C)CC2)n(C)c1=O	f
CS/C(c1ccccc1)=[N+](/C)[O-]	f
CC(=O)c1cnc2oc3ccc(O)cc3c2c1-c1ccccc1	f
